target: human 5-HT1A receptor (Homo sapiens (Human), UniProt P08908); test: Test 2: agonist activity for human 5-HT1A receptor ([35S]GTPγS binding); assay type: biochemical; conditions: [35S]GTPγS binding; concentration at which half the activity of Emax was obtained
Sequence (P08908 whole entry): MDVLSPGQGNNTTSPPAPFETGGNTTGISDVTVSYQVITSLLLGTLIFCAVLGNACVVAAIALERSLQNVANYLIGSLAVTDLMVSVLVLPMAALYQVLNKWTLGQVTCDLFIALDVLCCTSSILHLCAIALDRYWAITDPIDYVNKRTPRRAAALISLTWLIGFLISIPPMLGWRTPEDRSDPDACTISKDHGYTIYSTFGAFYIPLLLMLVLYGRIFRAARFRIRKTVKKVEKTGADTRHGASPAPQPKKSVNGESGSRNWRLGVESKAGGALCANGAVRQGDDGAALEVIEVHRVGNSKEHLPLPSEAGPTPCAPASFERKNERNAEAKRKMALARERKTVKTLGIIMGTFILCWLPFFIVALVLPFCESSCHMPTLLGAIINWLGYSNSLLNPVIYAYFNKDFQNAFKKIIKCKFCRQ
Mark condition met only for EC50 values smaller than 20 nM; exact matches and larger values are condition not met.

Is EC50 strictly under 20 nM for the entry "O=C1c2nc[nH]c2CCN1CCN1CCC(c2noc3ccccc23)CC1" ?
condition not met

Is EC50 strictly under 20 nM for the entry "Cc1cc2c(cn1)C(=O)N(CCN1CCN(c3noc4ccccc34)CC1)CC2" ?
condition met

Is EC50 strictly under 20 nM for the entry "CCc1ccc2c(n1)C(=O)N(CCN1CCC(c3noc4ccccc34)CC1)CC2" ?
condition not met

Is EC50 strictly under 20 nM for the entry "Cc1cc2c(cn1)C(=O)N(CCN1CCN(c3noc4ccccc34)CC1)CC21CC1" ?
condition met

Is EC50 strictly under 20 nM for the entry "O=C1c2ncccc2CCN1CCN1CCN(c2nsc3cc(F)ccc23)CC1" ?
condition not met

---

target: human 5-HT1A receptor (Homo sapiens (Human), UniProt P08908); assay: Test 2: agonist activity for human 5-HT1A receptor ([35S]GTPγS binding); type: biochemical; conditions: agonist activity in the presence of 10 μM of compound, relative to 100 μmol/L 5-HT
METRIC_NAME: Emax at 10 µM (%)
Answer format: numeric, % implied, no suffix.

Lookup result for "Cn1ncc2c1CCCN(CCN1CCN(c3nsc4ccccc34)CC1)C2=O" ; measured Emax at 10 µM: 76

Lookup result for "O=C1c2cncnc2CCN1CCN1CCN(c2nsc3ccccc23)CC1" ; measured Emax at 10 µM: 51

Lookup result for "O=C1c2cnccc2CCN1CCN1CCN(c2nsc3ccccc23)CC1" ; measured Emax at 10 µM: 90

Lookup result for CC1CN(CCN2CCC(c3noc4ccccc34)CC2)C(=O)c2ncccc21 (stereo not drawn) ; measured Emax at 10 µM: 57

Lookup result for "Cn1cc2c(n1)CCN(CCN1CCC(c3noc4ccccc34)CC1)C2=O" ; measured Emax at 10 µM: 52

Lookup result for "Cn1ncc2c1CCN(CCN1CCC(c3noc4ccccc34)CC1)C2=O" ; measured Emax at 10 µM: 44

Lookup result for "Cc1nc2c(o1)C(=O)N(CCN1CCN(c3nsc4ccccc34)CC1)CCC2" ; measured Emax at 10 µM: 58

Lookup result for "CCc1ncc2c(n1)CCN(CCN1CCN(c3nsc4ccccc34)CC1)C2=O" ; measured Emax at 10 µM: 41

Lookup result for Cn1cc2c(n1)CCN(CCN1CCC(c3noc4ccccc34)C1)C2=O (stereo not drawn) ; measured Emax at 10 µM: 50

---

biological target: human 5-HT1A receptor (Homo sapiens (Human)); assay: Test 2: agonist activity for human 5-HT1A receptor ([35S]GTPγS binding); assay type: biochemical; conditions: agonist activity in the presence of 10 μM of compound, relative to 100 μmol/L 5-HT
Can you tell me Emax at 10 µM for the items I'm about to list?
Answer format: numeric, % implied, no suffix.

Lookup result for COc1cc2c(cn1)C(=O)N(CCN1CCN(c3noc4ccccc34)CC1)CC2 [Example 20] ; measured Emax at 10 µM: 52

Lookup result for O=C1c2occc2CCN1CCN1CCC(c2noc3ccccc23)CC1 [Example 127] ; measured Emax at 10 µM: 48

Lookup result for Cc1nc2c(o1)C(=O)N(CCN1CCC(c3noc4ccccc34)CC1)CCC2 [Example 154] ; measured Emax at 10 µM: 58

Lookup result for O=c1c2cnc(C3CC3)nc2ccn1CCN1CCN(c2nsc3ccccc23)CC1 [Example 182] ; measured Emax at 10 µM: 40

Lookup result for Cc1nc2c(o1)CCN(CCN1CCN(c3nsc4ccccc34)CC1)C2=O [Example 51] ; measured Emax at 10 µM: 61

Lookup result for O=C1c2cn[nH]c2CCN1CCN1CCN(c2nsc3ccccc23)CC1 [Example 169] ; measured Emax at 10 µM: 44

Lookup result for O=C1c2cccnc2CCN1CCN1CCC(c2noc3ccccc23)CC1 [Example 128] ; measured Emax at 10 µM: 33

Lookup result for Cn1ncc2c1C(=O)N(CCN1CCN(c3nsc4ccccc34)CC1)CC2 [Example 59] ; measured Emax at 10 µM: 61

Lookup result for O=C1c2ncccc2CCC1CCN1CCN(c2noc3cc(F)ccc23)CC1 (stereo not drawn) [Example 143] ; measured Emax at 10 µM: 31

Lookup result for CC(C)c1ncc2c(n1)CCN(CCN1CCN(c3nsc4ccccc34)CC1)C2=O [Example 180] ; measured Emax at 10 µM: 37

Lookup result for Cc1cc2c(cn1)C(=O)N(CCN1CCN(c3noc4ccccc34)CC1)CC21CC1 [Example 21] ; measured Emax at 10 µM: 59

Lookup result for O=C1c2cn(-c3ccccc3)nc2CCN1CCN1CCN(c2nsc3ccccc23)CC1 [Example 168] ; measured Emax at 10 µM: 52

Lookup result for Cc1c2c(nn1C)CCN(CCN1CCN(c3noc4ccccc34)CC1)C2=O [Example 171] ; measured Emax at 10 µM: 56

Lookup result for O=C1c2ncccc2CCN1CCN1CCC(c2nsc3ccccc23)CC1 [Example 26] ; measured Emax at 10 µM: 50

Lookup result for Cn1ncc2c1CCCC(CCN1CCC(c3noc4ccccc34)CC1)C2=O (stereo not drawn) [Example 30] ; measured Emax at 10 µM: 42

Lookup result for Cc1nn(C)c2c1C(=O)N(CCN1CCN(c3nsc4ccccc34)CC1)CC2 [Example 105] ; measured Emax at 10 µM: 74

Lookup result for CC(C)n1ncc2c1CCN(CCN1CCN(c3nsc4ccccc34)CC1)C2=O [Example 158] ; measured Emax at 10 µM: 12

Lookup result for O=C1c2nc(F)ccc2CCN1CCN1CCC(c2noc3ccccc23)CC1 [Example 188] ; measured Emax at 10 µM: 53

---

Can you tell me Ki for the items I'm about to list?
target: human D2 receptor (Homo sapiens (Human)); experiment: Test 1: binding activity for human D2 receptor ([3H]Spiperone, CHO cell membrane fraction); details: human D2 receptor, [3H]Spiperone
Sequence (P14416 whole entry): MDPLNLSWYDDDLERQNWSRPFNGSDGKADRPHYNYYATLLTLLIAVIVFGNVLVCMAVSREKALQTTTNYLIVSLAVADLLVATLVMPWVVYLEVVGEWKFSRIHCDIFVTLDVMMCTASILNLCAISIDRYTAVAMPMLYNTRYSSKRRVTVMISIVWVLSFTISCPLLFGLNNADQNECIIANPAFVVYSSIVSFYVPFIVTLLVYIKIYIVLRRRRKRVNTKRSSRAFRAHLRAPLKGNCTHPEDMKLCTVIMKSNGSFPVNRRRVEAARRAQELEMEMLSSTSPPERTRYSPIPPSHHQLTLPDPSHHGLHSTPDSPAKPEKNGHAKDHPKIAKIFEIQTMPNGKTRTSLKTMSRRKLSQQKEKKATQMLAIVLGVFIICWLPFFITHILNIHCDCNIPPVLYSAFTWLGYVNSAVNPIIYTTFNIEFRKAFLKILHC
Answer format: numeric, µM implied, no suffix.

Lookup result for "O=C1c2cn[nH]c2CCCN1CCN1CCC(c2noc3ccccc23)CC1" ; measured Ki: 0.136

Lookup result for CC1CN(CCN2CCN(c3nsc4ccccc34)CC2)C(=O)c2ccn(C)c21 (stereo not drawn) ; measured Ki: 0.239

Lookup result for "Cc1nn(C)c2c1C(=O)N(CCN1CCC(c3noc4ccccc34)CC1)CCC2" ; measured Ki: 0.103

Lookup result for "N#Cc1cc2c(cn1)C(=O)N(CCN1CCN(c3nsc4ccccc34)CC1)CC2" ; measured Ki: 0.852

Lookup result for "Cn1ncc2c1C(=O)N(CCN1CCC(c3noc4ccccc34)CC1)CC2" ; measured Ki: 0.103

Lookup result for "COc1c2c(nn1C)CCN(CCN1CCN(c3nsc4ccccc34)CC1)C2=O" ; measured Ki: 0.804

Lookup result for "COc1cc2c(cn1)C(=O)N(CCN1CCN(c3nsc4ccccc34)CC1)CC2" ; measured Ki: 0.128

Lookup result for "Cn1ccc2c1CCN(CCN1CCN(c3nsc4ccccc34)CC1)C2=O" ; measured Ki: 0.134

Lookup result for "O=C1c2nc[nH]c2CCN1CCN1CCC(c2noc3ccccc23)CC1" ; measured Ki: 0.286

Lookup result for "Cn1nc2c(c1Br)C(=O)N(CCN1CCC(c3noc4ccccc34)CC1)CC2" ; measured Ki: 0.21

Lookup result for "O=C1c2cn(C3CC3)nc2CCN1CCN1CCC(c2noc3ccccc23)CC1" ; measured Ki: 0.472

Lookup result for "Cn1nc(Br)c2c1CCN(CCN1CCC(c3noc4ccccc34)CC1)C2=O" ; measured Ki: 0.867

Lookup result for "Cn1cc2c(n1)CCCN(CCN1CCC(c3noc4ccccc34)CC1)C2=O" ; measured Ki: 0.131

Lookup result for "CCc1nc2c(o1)C(=O)N(CCN1CCN(c3nsc4ccccc34)CC1)CC2" ; measured Ki: 0.305

---

molecular target: hERG channel (Homo sapiens (Human)); assay: Test 6-1: inhibitory activity for hERG channel (auto patch clamp, Qpatch); type: cell-based; conditions: whole cell auto patch clamp, hERG-CHO cells; read-out: hERG inhibition IC50
Sequence (Q12809 whole entry): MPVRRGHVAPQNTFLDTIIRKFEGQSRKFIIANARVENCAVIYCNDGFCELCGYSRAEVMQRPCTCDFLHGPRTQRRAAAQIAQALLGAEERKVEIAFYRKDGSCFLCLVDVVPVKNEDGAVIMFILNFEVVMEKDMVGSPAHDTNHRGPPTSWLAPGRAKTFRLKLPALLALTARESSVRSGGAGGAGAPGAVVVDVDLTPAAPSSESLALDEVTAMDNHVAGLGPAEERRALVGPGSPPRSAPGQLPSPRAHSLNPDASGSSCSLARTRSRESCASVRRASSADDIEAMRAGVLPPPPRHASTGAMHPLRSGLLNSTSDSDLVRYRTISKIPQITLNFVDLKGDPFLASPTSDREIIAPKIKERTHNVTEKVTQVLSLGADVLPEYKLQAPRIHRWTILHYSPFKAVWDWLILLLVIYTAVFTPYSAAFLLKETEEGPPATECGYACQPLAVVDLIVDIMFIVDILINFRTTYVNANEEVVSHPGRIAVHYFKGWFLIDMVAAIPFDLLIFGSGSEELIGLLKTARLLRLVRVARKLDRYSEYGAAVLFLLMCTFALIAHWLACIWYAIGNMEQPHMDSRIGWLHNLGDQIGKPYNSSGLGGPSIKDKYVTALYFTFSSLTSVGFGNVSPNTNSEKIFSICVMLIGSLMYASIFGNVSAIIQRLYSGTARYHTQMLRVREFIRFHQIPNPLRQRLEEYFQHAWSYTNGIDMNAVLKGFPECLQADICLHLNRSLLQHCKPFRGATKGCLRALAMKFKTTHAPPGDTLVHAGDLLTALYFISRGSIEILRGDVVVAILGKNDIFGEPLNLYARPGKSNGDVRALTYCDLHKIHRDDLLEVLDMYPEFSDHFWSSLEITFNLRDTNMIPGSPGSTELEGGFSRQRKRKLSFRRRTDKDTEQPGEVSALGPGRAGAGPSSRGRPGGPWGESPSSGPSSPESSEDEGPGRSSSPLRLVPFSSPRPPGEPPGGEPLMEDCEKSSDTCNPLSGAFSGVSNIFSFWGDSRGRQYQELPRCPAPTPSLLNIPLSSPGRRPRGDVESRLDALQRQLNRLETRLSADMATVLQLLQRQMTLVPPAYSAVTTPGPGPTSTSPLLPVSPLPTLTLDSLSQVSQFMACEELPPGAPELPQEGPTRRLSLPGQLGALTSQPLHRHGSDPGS
METRIC_NAME: pIC50
Scale note: pIC50 = -log10(concentration in M).

Lookup result for "O=C1c2oc(C3CC3)nc2CCN1CCN1CCN(c2nsc3ccccc23)CC1" ; measured pIC50: 5.80

Lookup result for "Cc1noc2c1C(=O)N(CCN1CCC(c3noc4ccccc34)CC1)CCC2" ; measured pIC50: 6.30

Lookup result for "Cc1c2c(nn1C)CCN(CCN1CCN(c3nsc4ccccc34)CC1)C2=O" ; measured pIC50: 5.36

Lookup result for "Cc1cc2c(cn1)C(=O)N(CCN1CCN(c3nsc4ccccc34)CC1)CC2" ; measured pIC50: 5.55

Lookup result for "O=C1c2cccnc2CCN1CCN1CCN(c2noc3ccccc23)CC1" ; measured pIC50: 5.15

Lookup result for "Cc1noc2c1C(=O)N(CCN1CCN(c3nsc4ccccc34)CC1)CCC2" ; measured pIC50: 5.74

Lookup result for "Cn1ccc2c1CCCN(CCN1CCN(c3nsc4ccccc34)CC1)C2=O" ; measured pIC50: 5.10

Lookup result for "Cc1nc(C)c2c(=O)n(CCN3CCC(c4noc5ccccc45)CC3)ccc2n1" ; measured pIC50: 5.57

Lookup result for O=C1c2ncccc2CCC1CCN1CCC(c2noc3ccccc23)CC1 (stereo not drawn) ; measured pIC50: 6.40

Lookup result for "Cn1cnc2c1C(=O)N(CCN1CCN(c3nsc4ccccc34)CC1)CC2" ; measured pIC50: 5.12

Lookup result for "O=C1c2nc(Cl)ccc2CCN1CCN1CCC(c2noc3ccccc23)CC1" ; measured pIC50: 6.52

Lookup result for "COc1cc2c(cn1)C(=O)N(CCN1CCC(c3noc4ccccc34)CC1)CC2" ; measured pIC50: 6.10

Lookup result for "O=C1c2ncccc2CCN1CCN1CCC(c2nsc3ccccc23)CC1" ; measured pIC50: 6.10

Lookup result for "Cc1c2c(nn1C)CCN(CCN1CCN(c3noc4ccccc34)CC1)C2=O" ; measured pIC50: 5.18

Lookup result for "Cn1ncc2c1CCCN(CCN1CCC(c3noc4ccccc34)CC1)C2=O" ; measured pIC50: 5.68

Lookup result for "Cc1nc2c(o1)CCN(CCN1CCN(c3nsc4ccccc34)CC1)C2=O" ; measured pIC50: 5.29

Lookup result for "CCc1cc2c(cn1)C(=O)N(CCN1CCN(c3nsc4ccccc34)CC1)CC2" ; measured pIC50: 6.15

Lookup result for "Cn1c(F)cc2c1CCN(CCN1CCN(c3nsc4ccccc34)CC1)C2=O" ; measured pIC50: 5.66

Lookup result for "Cc1nc2c(o1)C(=O)N(CCN1CCC(c3noc4ccccc34)CC1)CC2" ; measured pIC50: 5.82

Lookup result for "Cc1ncc2c(n1)CCN(CCN1CCC(c3noc4ccccc34)CC1)C2=O" ; measured pIC50: 5.25

Lookup result for CC1CN(CCN2CCC(c3noc4ccccc34)CC2)C(=O)c2ccn(C)c21 (stereo not drawn) ; measured pIC50: 5.72

Lookup result for "Cc1nc2c(o1)C(=O)N(CCN1CCN(c3nsc4ccccc34)CC1)CCC2" ; measured pIC50: 5.43

Lookup result for "O=C1c2nc(F)ccc2CCN1CCN1CCC(c2noc3ccccc23)CC1" ; measured pIC50: 5.72

Lookup result for "Cc1cncc2c1CCN(CCN1CCN(c3noc4ccccc34)CC1)C2=O" ; measured pIC50: 5.11

Lookup result for "CC(C)c1nc2c(o1)C(=O)N(CCN1CCC(c3noc4ccccc34)CC1)CC2" ; measured pIC50: 6.00

Lookup result for "CCc1ccc2c(n1)C(=O)N(CCN1CCC(c3noc4ccccc34)CC1)CC2" ; measured pIC50: 6.15

Lookup result for "Cc1noc2c1C(=O)N(CCN1CCC(c3noc4ccccc34)CC1)CC2" ; measured pIC50: 6.22

Lookup result for "Cc1n[nH]c2c1C(=O)N(CCN1CCC(c3noc4ccccc34)CC1)CC2" ; measured pIC50: 5.54

Lookup result for "O=C1c2cncnc2CCN1CCN1CCN(c2nsc3ccccc23)CC1" ; measured pIC50: 5.22
